SYSTEM: Cy3-PARP1 (Homo sapiens, UniProt P09874 1-1014)
Sequence (P09874 whole entry): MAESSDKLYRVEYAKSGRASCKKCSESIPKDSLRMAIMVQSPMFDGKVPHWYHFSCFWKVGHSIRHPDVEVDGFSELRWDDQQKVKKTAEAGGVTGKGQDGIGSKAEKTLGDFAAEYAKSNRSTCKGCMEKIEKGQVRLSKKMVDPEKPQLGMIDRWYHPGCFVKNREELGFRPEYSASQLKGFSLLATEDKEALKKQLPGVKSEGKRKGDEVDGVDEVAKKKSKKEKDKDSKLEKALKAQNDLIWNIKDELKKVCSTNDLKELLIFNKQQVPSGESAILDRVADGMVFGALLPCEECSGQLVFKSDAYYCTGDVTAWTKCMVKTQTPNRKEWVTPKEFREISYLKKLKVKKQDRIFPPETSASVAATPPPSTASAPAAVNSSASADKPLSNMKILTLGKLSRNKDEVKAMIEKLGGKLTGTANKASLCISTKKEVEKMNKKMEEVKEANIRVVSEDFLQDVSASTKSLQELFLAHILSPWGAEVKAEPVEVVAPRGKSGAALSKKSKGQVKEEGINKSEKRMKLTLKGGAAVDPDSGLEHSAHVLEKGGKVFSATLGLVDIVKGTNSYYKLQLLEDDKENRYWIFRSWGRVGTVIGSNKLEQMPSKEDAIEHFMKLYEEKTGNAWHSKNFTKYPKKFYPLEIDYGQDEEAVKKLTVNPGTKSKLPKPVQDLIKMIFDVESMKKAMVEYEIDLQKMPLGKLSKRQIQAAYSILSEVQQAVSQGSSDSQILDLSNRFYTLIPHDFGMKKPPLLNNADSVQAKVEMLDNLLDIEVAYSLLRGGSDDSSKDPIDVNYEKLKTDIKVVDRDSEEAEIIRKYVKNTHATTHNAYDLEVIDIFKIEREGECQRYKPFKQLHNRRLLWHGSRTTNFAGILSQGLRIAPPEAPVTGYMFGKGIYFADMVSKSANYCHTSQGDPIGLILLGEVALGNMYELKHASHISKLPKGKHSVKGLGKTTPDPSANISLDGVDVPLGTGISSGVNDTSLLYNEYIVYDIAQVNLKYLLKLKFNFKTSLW
TEST_PROTOCOL: smTIRFM
PARAMETER_MEASURED: Kd (nM)

BINDER	UNIT_LABEL	ASSAY_RESULT
cKITG4-PT (smTIRFM) (structured_DNA, 3' biotin on strand 2) DNA 1: TGGCGACGGCAGCGAGGCGGGCGGGCGCGAGGGAGGGGAGGTCTAATGCATTAAGTTCCTTAATGCATTAGA DNA 2: GCCTCGCTGCCGTCGCCA	nM	3.24
GGGCGGGCGCGAGGGAGGGGAGG (structured_DNA, 3' biotin) [cKITG4 (smTIRFM)]	nM	0.04
nicked (smTIRFM) (structured_DNA, 3' biotin on strand 2) DNA 1: TGGCGACGGCAGCGAGGCTCTAATGCATTAAGTTCCTTAATGCATTAGA DNA 2: GCCTCGCTGCCGTCGCCA	nM	3.96
